Biological target: Huntingtin (Homo sapiens) (UniProt P42858)
Sequence (P42858 whole entry): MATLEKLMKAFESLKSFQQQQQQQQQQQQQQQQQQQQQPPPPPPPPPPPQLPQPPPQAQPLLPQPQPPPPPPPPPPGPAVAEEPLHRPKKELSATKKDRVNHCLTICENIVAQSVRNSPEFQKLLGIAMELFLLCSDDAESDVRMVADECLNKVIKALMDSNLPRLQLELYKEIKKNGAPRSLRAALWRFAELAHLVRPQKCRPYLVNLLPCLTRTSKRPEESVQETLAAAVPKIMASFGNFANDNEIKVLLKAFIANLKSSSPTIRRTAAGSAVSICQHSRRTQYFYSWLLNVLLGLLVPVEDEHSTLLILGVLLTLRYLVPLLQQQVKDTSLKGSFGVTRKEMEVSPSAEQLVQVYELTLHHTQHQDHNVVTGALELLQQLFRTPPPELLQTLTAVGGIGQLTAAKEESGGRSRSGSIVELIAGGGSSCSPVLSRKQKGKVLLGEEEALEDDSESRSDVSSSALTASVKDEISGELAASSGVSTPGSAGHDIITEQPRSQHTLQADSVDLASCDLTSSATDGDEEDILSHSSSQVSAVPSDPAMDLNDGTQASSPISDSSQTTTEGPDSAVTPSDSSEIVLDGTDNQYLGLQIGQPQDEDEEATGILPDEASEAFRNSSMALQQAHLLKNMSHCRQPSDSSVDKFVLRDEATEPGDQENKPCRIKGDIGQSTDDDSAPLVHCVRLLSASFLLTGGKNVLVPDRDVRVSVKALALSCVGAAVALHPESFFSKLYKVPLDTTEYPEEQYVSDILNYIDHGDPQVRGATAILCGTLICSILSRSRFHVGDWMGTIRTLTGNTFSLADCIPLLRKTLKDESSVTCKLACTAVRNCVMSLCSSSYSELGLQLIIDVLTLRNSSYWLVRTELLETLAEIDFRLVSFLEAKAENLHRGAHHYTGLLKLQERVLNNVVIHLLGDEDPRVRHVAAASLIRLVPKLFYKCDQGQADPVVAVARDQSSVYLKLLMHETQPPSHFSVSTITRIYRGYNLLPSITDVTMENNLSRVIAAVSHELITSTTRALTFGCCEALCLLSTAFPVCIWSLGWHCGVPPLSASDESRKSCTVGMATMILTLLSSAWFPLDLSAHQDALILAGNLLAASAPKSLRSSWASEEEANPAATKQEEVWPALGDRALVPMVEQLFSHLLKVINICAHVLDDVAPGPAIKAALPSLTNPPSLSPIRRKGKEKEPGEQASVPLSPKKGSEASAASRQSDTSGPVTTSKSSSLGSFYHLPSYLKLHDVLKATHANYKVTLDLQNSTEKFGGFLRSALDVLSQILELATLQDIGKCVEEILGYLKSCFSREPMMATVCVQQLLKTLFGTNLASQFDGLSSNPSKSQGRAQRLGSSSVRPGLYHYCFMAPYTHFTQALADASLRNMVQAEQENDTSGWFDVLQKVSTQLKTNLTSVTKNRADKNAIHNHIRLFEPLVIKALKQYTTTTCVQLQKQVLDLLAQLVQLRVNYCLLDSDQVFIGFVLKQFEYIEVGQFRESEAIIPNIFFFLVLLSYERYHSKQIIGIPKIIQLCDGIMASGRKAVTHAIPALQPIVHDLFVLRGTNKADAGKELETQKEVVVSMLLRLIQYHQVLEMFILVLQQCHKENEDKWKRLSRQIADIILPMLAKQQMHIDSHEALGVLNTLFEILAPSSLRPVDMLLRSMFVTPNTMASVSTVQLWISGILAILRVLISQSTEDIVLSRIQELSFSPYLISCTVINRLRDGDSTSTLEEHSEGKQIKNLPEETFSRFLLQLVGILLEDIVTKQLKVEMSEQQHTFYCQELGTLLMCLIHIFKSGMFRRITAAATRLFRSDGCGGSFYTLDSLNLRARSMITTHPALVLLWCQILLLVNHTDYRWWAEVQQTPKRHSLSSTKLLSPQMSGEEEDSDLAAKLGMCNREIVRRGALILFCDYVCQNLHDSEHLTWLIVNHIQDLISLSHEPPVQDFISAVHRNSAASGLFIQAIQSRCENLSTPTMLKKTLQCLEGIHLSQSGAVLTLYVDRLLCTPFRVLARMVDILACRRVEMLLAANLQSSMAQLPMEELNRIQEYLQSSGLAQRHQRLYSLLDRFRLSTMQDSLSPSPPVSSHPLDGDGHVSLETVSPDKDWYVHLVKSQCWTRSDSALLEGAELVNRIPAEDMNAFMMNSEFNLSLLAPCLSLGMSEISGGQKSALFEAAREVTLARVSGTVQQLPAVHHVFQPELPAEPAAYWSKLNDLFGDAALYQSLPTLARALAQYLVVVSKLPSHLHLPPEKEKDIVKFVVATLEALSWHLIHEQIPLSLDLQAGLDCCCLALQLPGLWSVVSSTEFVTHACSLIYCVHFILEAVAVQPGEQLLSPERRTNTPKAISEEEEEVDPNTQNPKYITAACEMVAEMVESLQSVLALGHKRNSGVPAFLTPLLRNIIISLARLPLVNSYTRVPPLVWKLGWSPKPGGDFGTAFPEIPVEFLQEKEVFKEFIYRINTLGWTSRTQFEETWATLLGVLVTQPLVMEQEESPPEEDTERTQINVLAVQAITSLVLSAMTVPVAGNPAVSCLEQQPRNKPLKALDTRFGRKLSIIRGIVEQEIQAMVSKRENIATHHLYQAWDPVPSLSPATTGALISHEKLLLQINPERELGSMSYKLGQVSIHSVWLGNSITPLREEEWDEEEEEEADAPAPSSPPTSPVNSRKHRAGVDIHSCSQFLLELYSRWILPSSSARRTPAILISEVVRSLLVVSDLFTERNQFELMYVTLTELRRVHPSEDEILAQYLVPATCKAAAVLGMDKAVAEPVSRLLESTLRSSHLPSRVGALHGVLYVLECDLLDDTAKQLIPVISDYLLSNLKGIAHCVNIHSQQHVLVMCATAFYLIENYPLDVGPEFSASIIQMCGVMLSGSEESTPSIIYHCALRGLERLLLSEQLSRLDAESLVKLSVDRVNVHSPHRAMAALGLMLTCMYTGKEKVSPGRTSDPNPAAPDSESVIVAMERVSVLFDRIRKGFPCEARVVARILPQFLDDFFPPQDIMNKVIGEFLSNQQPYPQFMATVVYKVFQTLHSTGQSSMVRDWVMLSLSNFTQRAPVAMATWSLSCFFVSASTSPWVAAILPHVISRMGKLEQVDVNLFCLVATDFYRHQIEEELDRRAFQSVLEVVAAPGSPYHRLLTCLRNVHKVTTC
Test: qHTS Multiplex Assay to Identify Dual Action Probes in a Cell Model of Huntington: Aggregate Formation (GFP). [Related pubchem assays: 1482, 1471 ]
Assay type: functional
In all, about 220,000 compounds went through this assay and about 2,400 (1.1%) were called active. About 7% were inconclusive and are not listed. This excerpt belongs to a sample that is enriched for actives.
Overview of recorded Potency for various compounds

O=C(c1nc2nc(-c3ccccc3)cc(C(F)(F)F)n2n1)N1CCOCC1    112 µM (active)
Cc1nnc2sc(SCc3ccc(Cl)cc3)nn2c1=O    891 µM (active)
CN(C)CCN(C(=O)c1ccc(S(=O)(=O)N(C)C)cc1)c1nc2cc3c(cc2s1)OCCO3    141 µM (active)

// next item, Potency requested
The compound listed as CCOc1ccc(S(=O)(=O)n2ccc(C)n2)c2ccccc12 has a reported Potency of 56.2 µM (active)
